// provenance: patent US20210347873A1

Parameter: MFI. Scope: all listed entries.
Target: T1, cynomolgus BLyS (full length, arginine to histidine at position 132) on CHO-K1 cells (cynomolgus, UniProt Q9Y275 1-285 (human entry))
T1 construct: also called cyno BLyS; CHO-K1 cynoBLyS
T1 chain: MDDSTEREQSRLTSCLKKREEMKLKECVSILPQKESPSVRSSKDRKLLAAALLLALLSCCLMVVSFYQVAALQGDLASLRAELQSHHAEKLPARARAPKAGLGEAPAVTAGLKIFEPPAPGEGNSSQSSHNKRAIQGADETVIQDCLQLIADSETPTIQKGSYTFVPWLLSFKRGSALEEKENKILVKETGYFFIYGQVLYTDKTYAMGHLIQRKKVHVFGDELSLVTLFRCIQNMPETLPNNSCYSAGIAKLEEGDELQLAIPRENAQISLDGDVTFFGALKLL
Assay: flow cytometry, CHO-K1 cynoBLyS cells, antibody 0.00427 nM
Answer format: numeric, MFI implied, no suffix.

binder: 67A2E1D10 (antibody, V domains shown, Mouse hybridoma monoclonal antibody purified on Protein G) VH: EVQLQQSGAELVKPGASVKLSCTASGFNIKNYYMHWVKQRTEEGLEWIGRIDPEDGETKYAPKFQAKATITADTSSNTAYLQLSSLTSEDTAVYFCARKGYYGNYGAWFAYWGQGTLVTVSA VL: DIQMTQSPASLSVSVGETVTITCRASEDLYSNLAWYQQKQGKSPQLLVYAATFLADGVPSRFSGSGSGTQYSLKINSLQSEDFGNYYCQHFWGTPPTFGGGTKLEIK
unitSpec: MFI
MFI: 24.7
--
binder: 2-1G11 (antibody, V domains shown, From a human naive scFv phage library; also called human BLyS antibody 2-1G11) VH: EVQLVESRGGVVQPGRSLRLSCAASGFTFSSYGMHWVRQAPGKGLEWVAVISYDGSNKYYADSVKGRFTISRDNSKNTLYLQMNSLRAEDAAVYYCARDRVDILTGYSIYGMDVWGQGTTVTVSS VL: EIVMTQSPATLSLSPGERATLSCRASQSVSSYLAWYQQKPGQAPRLLIYDASKRATGIPARFSGSGSGTDFTLTISSLEPEDFAVYYCQQRSNWPLTFGGGTKVEIK
unitSpec: MFI
MFI: 176
--
binder: 78C11D2D12 (antibody, V domains shown, Mouse hybridoma monoclonal antibody purified on Protein G) VH: QVQLQQSGAELVRPGTSVKISCKASGYAFTNYWLGWVKQRPGHGLEWIGDIYPGSGNTYYNEKFKGKATLTADKSSSTAYMQLSSLTSEDSAVFFCAAYLYAMDYWGQGTSVTVSS VL: QIVLTQSPAIMSASPGEKVTITCSASSSVSYMHWFQQKPGTSPKLWIYSASNLASGVPARFSGSGSGTSYSLTISRMEAEDAATYYCQQRGSYPFTFGSGTKLEIK
unitSpec: MFI
MFI: 37.7
--
binder: 97E7B3F2 (antibody, V domains shown, Mouse hybridoma monoclonal antibody purified on Protein G) VH: EVQLQQSGPELVKSGASVKISCKASGYTFTDHKMHWVKQSHGKSLEWIGYISPYNGGTGYNQKFKSKVTLTVDISSSTAYMELRSLTSEDSAVYYCARWGFYDVMDSWGQGTSVTVSS VL: DVLLTQTPLSLPVSLGDQASISCRSSQTIVHIIGDTYLEWYLQKPGQSPKLLIYKVSNRFSGVPDRFSGSGAGTDFTLKISRVEAEDLGVYYCFQGSHVPRTFGGGTKLEIK
unitSpec: MFI
MFI: 53
--
binder: L1D12 (antibody, V domains shown, From a human naive scFv phage library; also called human BLyS antibody L1D12; LID12) VH: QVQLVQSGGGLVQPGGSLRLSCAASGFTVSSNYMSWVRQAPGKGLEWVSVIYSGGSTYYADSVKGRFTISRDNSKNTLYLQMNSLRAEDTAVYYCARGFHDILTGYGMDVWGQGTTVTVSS VL: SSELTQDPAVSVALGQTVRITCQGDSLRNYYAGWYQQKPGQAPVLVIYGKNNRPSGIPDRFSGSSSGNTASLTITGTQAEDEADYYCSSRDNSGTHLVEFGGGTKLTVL
unitSpec: MFI
MFI: 66.7

Please look up its MFI: L9G7 (antibody, V domains shown, From a human naive scFv phage library; also called human BLyS antibody L9G7) VH: QIQLVQSGAEVKKPGASVKVSCKASGYTFTSYGISWVRQAPGQGLEWMGWISAYNGNTNYAQKLQGRVTMTTDTSTSTAYMELRSLRSDDTAVYYCARTYYDILTGYYYYGMDVWGQGTTVTVSS VL: EIVLTQSPGTLSLSPGERATLSCRTSQSVDTYLAWYQQKPGQAPRLLIYDASNRATGIPARFSGSGSGTDFTLTISSLEPEDFAVYYCQQRSNWPLTFGGGTKVEIK
63.5
